# SYSTEM_TESTED: T1, LNX2_2, Q8N448
# T1 sequence (Q8N448 334-432, limits assumed, looked up): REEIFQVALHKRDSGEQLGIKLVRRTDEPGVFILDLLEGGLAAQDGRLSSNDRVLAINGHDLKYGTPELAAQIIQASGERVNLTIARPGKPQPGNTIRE
# PROCEDURE_TEXT: holdup assay
# Design: key: below the threshold = too weak to quantify, mostly under pKd 3.1 to 4
# RUN_CONDITIONS: plain residues with an end cap or a label only (N-terminal biotin on a linker: ahx)
MEASUREMENT_TYPE: pKd

Recorded pKd, per entry:
BINDER	MEASUREMENT_TYPE	RESULT
PSASCAVTAA [PDLIM4, P50479;P50479-2]	pKd	below the threshold
LSDPSVSTVV [GRIN1, Q05586;Q05586-2]	pKd	4.64
TVICWPGSLV [LNX2, Q8N448]	pKd	4.32
RAVEEEESRF [PSCDBP, O60759]	pKd	below the threshold
NRKREIFSNF [NHERF2, Q15599]	pKd	below the threshold
SDSSGQEYSL [KCTD3, Q9Y597]	pKd	below the threshold

# binder GYDWGPATDL [TJP3, O95049] ; its pKd = below the threshold

So, ESLLLGPSNF [SHROOM4, Q9ULL8] ? Its pKd was below the threshold

Just so you know, measured pKd for HNAFLSVTTV [PDZRN4, Q6ZMN7] came out at 3.87

For record RRRKRKRTYL [HPV49-L2, P36762] the listed pKd is below the threshold
